Tested on: wheat (winter wheat, Triticum aestivum)
experimental.protocol: Test C greenhouse herbicide test, pre- and postemergence
Type: in vivo
condition.set: Preemergence, 125 g ai/ha; scale 0 to 100, 0 is no effect, 100 is complete control
observed.property: Plant response rating, Wheat

{"compound.smiles": "Cc1nn(C)c(=O)c(-c2ccc(F)c3ccccc23)c1O", "measured.on": "wheat (winter wheat, Triticum aestivum)", "endpoint.result": 50}
{"compound.smiles": "CC(=O)Oc1c(C)nn(C)c(=O)c1-c1c(C)sc2ccc(Cl)cc12", "measured.on": "wheat (winter wheat, Triticum aestivum)", "endpoint.result": 15}
{"compound.smiles": "Cc1cc(C)c2ccccc2c1-c1c(O)c(C)nn(C)c1=O", "measured.on": "wheat (winter wheat, Triticum aestivum)", "endpoint.result": 30}
{"compound.smiles": "Cc1ccc2ccccc2c1-c1c(O)c(I)nn(C)c1=O", "measured.on": "wheat (winter wheat, Triticum aestivum)", "endpoint.result": 45}
{"compound.smiles": "Cc1nn(C)c(=O)c(-c2c(C)sc3ccc(Br)cc23)c1O", "measured.on": "wheat (winter wheat, Triticum aestivum)", "endpoint.result": 0}
{"compound.smiles": "CCC(=O)Oc1c(C)nn(C)c(=O)c1-c1ccc(F)c2ccccc12", "measured.on": "wheat (winter wheat, Triticum aestivum)", "endpoint.result": 35}
{"compound.smiles": "COC(=O)Oc1c(C)nn(C)c(=O)c1-c1c(C)sc2ccc(C)cc12", "measured.on": "wheat (winter wheat, Triticum aestivum)", "endpoint.result": 0}
{"compound.smiles": "CCc1sc2c(C)cc(C)cc2c1-c1c(O)c(C)nn(C)c1=O", "measured.on": "wheat (winter wheat, Triticum aestivum)", "endpoint.result": 0}
{"compound.smiles": "CC(=O)Oc1c(C)nn(C)c(=O)c1-c1c(C)sc2ccc(C(F)(F)F)cc12", "measured.on": "wheat (winter wheat, Triticum aestivum)", "endpoint.result": 20}

###

Test system: blackgrass (Alopecurus myosuroides)
experimental.protocol: Test A greenhouse herbicide test, postemergence
Assay type: in vivo
condition.set: 500 g ai/ha, visual rating after approx. 10 d, 0 to 100 scale (0 no effect, 100 complete control)
So basically: is Plant response rating, Blackgrass under 50? Then 1. Not under? Then 0.

{"compound": "Cc1ccc2oc(C)c(-c3c(O)c(C(C)C)nn(C)c3=O)c2c1 [Compound 119]", "class.label": 1}
{"compound": "COC(=O)Oc1c(C)nn(C)c(=O)c1-c1ccc(F)c2ccccc12 [Compound 130]", "class.label": 0}
{"compound": "Cc1nn(C)c(=O)c(-c2ccc(Cl)c3ccccc23)c1OC(=O)C(F)(F)F [Compound 159]", "class.label": 0}
{"compound": "Cc1nn(C)c(=O)c(-c2ccc(Cl)c3ccccc23)c1O [Compound 139]", "class.label": 0}
{"compound": "CC(=O)Oc1cnn(C)c(=O)c1-c1c(C)sc2ccccc12 [Compound 120]", "class.label": 1}
{"compound": "Cc1ccc2ccc(Cl)cc2c1-c1c(O)c(C)nn(C)c1=O [Compound 144]", "class.label": 0}
{"compound": "CC(=O)Oc1c(Cl)nn(C)c(=O)c1-c1c(C)sc2ccc(C(F)(F)F)cc12 [Compound 152]", "class.label": 1}
{"compound": "COc1nn(C)c(=O)c(-c2c(C)sc3ccc(Cl)cc23)c1OC(C)=O [Compound 122]", "class.label": 1}

###

Tested on: dayflower (Virginia (VA) dayflower, Commelina virginica)
experimental.protocol: Test E greenhouse herbicide test, pre- and postemergence
Type: in vivo
condition.set: Postemergence, 31 g ai/ha; visual, scale 0 no effect to 100 complete control

{"compound.smiles": "Cc1ccc2sc(Br)c(-c3c(O)c(C)nn(C)c3=O)c2c1", "Plant response rating, Dayflower, VA": 50}
{"compound.smiles": "Cc1ccc2ccccc2c1-c1c(OC(=O)OC(C)C)c(C)nn(C)c1=O", "Plant response rating, Dayflower, VA": 60}
{"compound.smiles": "Cc1cc2ccccc2c(-c2c(O)c(C)nn(C)c2=O)c1C", "Plant response rating, Dayflower, VA": 60}
{"compound.smiles": "CC(=O)Oc1c(C)nn(C)c(=O)c1-c1c(C)cc(C)c2ccccc12", "Plant response rating, Dayflower, VA": 60}
{"compound.smiles": "Cc1cc(C)c2sc(C)c(-c3c(O)c(C)nn(C)c3=O)c2c1", "Plant response rating, Dayflower, VA": 20}
{"compound.smiles": "Cc1nn(C)c(=O)c(-c2cccc3ccc(Br)cc23)c1O", "Plant response rating, Dayflower, VA": 0}

###

System: kochia (Kochia scoparia)
experimental.protocol: Test C greenhouse herbicide test, postemergence
Format: in vivo
condition.set: Postemergence, 125 g ai/ha; scale 0 to 100, 0 is no effect, 100 is complete control
A collection of molecules and their measured Plant response rating, Kochia

{"compound.smiles": "Cc1ccc2sc(Br)c(-c3c(O)c(C)nn(C)c3=O)c2c1", "measured.on": "kochia (Kochia scoparia)", "Plant response rating, Kochia": 90}
{"compound.smiles": "Cc1ccc2sc(C)c(-c3c(OC(=O)OC(C)C)c(C)nn(C)c3=O)c2c1", "measured.on": "kochia (Kochia scoparia)", "Plant response rating, Kochia": 90}
{"compound.smiles": "COC(=O)Oc1c(C)nn(C)c(=O)c1-c1c(C)sc2ccc(C)cc12", "measured.on": "kochia (Kochia scoparia)", "Plant response rating, Kochia": 90}
{"compound.smiles": "Cc1ccc2ccccc2c1-c1c(O)c(C(F)(F)F)nn(C)c1=O", "measured.on": "kochia (Kochia scoparia)", "Plant response rating, Kochia": 20}
{"compound.smiles": "CCc1oc2ccc(C)cc2c1-c1c(O)c(C)nn(C)c1=O", "measured.on": "kochia (Kochia scoparia)", "Plant response rating, Kochia": 95}
{"compound.smiles": "Cn1nc(Br)c(O)c(-c2cccc3ccccc23)c1=O", "measured.on": "kochia (Kochia scoparia)", "Plant response rating, Kochia": 90}
{"compound.smiles": "Cc1ccc2ccccc2c1-c1c(O)c(I)nn(C)c1=O", "measured.on": "kochia (Kochia scoparia)", "Plant response rating, Kochia": 75}
{"compound.smiles": "Cc1nn(C)c(=O)c(-c2cccc3ccc(Br)cc23)c1O", "measured.on": "kochia (Kochia scoparia)", "Plant response rating, Kochia": 95}
{"compound.smiles": "CCc1sc2ccc(C)cc2c1-c1c(O)c(C)nn(C)c1=O", "measured.on": "kochia (Kochia scoparia)", "Plant response rating, Kochia": 95}

###

System: lambsquarters (Chenopodium album)
experimental.protocol: Test C greenhouse herbicide test, pre- and postemergence
Format: in vivo
condition.set: Postemergence, 250 g ai/ha; scale 0 to 100, 0 no effect, 100 complete control; 13 to 15 d
observed.property: Plant response rating, Lambsquarters

{"compound.smiles": "Cc1cc(C)c2ccccc2c1-c1c(O)c(C)nn(C)c1=O", "measured.on": "lambsquarters (Chenopodium album)", "endpoint.result": 98}
{"compound.smiles": "COC(=O)Oc1c(C)nn(C)c(=O)c1-c1c(C)sc2ccc(C)cc12", "measured.on": "lambsquarters (Chenopodium album)", "endpoint.result": 100}
{"compound.smiles": "CCCC(=O)Oc1c(C)nn(C)c(=O)c1-c1c(CC)sc2ccc(C)cc12", "measured.on": "lambsquarters (Chenopodium album)", "endpoint.result": 98}
{"compound.smiles": "Cc1cc2ccccc2c(-c2c(O)c(C)nn(C)c2=O)c1C", "measured.on": "lambsquarters (Chenopodium album)", "endpoint.result": 100}
{"compound.smiles": "Cc1ccc2sc(C)c(-c3c(OC(=O)OC(C)C)c(C)nn(C)c3=O)c2c1", "measured.on": "lambsquarters (Chenopodium album)", "endpoint.result": 100}
{"compound.smiles": "COC(=O)Oc1cnn(C)c(=O)c1-c1c(C)sc2ccccc12", "measured.on": "lambsquarters (Chenopodium album)", "endpoint.result": 60}

###

System: bromegrass, downy (downy bromegrass, Bromus tectorum)
experimental.protocol: Test D controlled growth environment herbicide test, pre- and postemergence
Assay type: in vivo
condition.set: postemergence, 62 g ai/ha; scale 0 to 100, 0 no effect, 100 complete control
Text: […]
A collection of molecules and their measured Plant response rating, Bromegrass, Downy

{"molecule": "CCCC(=O)Oc1c(C)nn(C)c(=O)c1-c1c(C)sc2ccc(C)cc12 [Compound 105]", "measured.on": "bromegrass, downy (downy bromegrass, Bromus tectorum)", "Plant response rating, Bromegrass, Downy": 20}
{"molecule": "Cc1ccc2ccccc2c1-c1c(O)c(Br)nn(C)c1=O [Compound 23]", "measured.on": "bromegrass, downy (downy bromegrass, Bromus tectorum)", "Plant response rating, Bromegrass, Downy": 45}
{"molecule": "CCc1sc2c(C)cc(C)cc2c1-c1c(O)c(C)nn(C)c1=O [Compound 57]", "measured.on": "bromegrass, downy (downy bromegrass, Bromus tectorum)", "Plant response rating, Bromegrass, Downy": 20}
{"molecule": "Cc1cc2ccccc2c(-c2c(O)c(C)nn(C)c2=O)c1C [Compound 34]", "measured.on": "bromegrass, downy (downy bromegrass, Bromus tectorum)", "Plant response rating, Bromegrass, Downy": 30}
